target: CDK2/cyclinA (Homo sapiens); construct: purchased Invitrogen PV3267; assay: Z'-LYTE kinase assay CDK2/cyclinA; assay type: biochemical; conditions: read-out: Kinase inhibition, IC50 CDK2A
Outcome measure: IC50 (nM)

CCn1cc(-c2ccnc(Nc3cccc(C#N)c3)n2)c2cccnc21
3480

(P) CCn1cc(-c2ccnc(Nc3ccc(O)cc3)n2)c2cccnc21
(Q) CCCn1cc(-c2ccnc(Nc3cccc(S(N)(=O)=O)c3)n2)c2ccncc21
(R) CCn1cc(-c2ccnc(Nc3cccc(O)c3)n2)c2cccnc21
(S) CCn1cc(-c2ccnc(Nc3cccc(S(N)(=O)=O)c3)n2)c2cccnc21
// smallest IC50 at index 0, largest at the end API: response body holds the labels in the requested order. Q, S, R, P
